Recorded values, source patent US9023865B2.

Biological target: Active Human ERK2 (hERK2) (Homo sapiens (Human))
Sequence (P28482 whole entry): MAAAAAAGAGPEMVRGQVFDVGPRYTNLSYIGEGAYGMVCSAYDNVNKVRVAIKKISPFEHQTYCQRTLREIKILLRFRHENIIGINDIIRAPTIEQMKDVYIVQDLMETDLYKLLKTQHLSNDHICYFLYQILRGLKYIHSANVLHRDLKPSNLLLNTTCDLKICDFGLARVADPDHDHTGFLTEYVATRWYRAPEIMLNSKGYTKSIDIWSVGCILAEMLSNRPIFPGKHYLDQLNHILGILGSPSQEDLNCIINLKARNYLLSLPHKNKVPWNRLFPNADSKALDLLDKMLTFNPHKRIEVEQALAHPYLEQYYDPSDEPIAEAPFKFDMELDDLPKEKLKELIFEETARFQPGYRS
Assay: Active Human ERK2 (hERK2) Activity Assay (IMAP-FP)
Format: biochemical
Conditions: phosphorylated active hERK2, 30 μM ATP; average; read-out: ERK 2 Human average IC50
experimental.readout: IC50

> print(dat)
                                   compound  experimental.readout    result
1  Cc1cc(-c2n[nH]c3cc(NC(=O)N[C@H](CO)c4cccc5cc[nH]c45)ncc23)ccn1 [Example 362]                  IC50  0.288 nM
2  Cc1cc(-c2n[nH]c3cc(NC(=O)NCC(c4ccccc4)N4CCCCC4)ncc23)ccn1 (stereo not shown) [Example 386]                  IC50   4.94 nM
3  Cc1cc(-c2n[nH]c3cc(NC(=O)NC[C@H](C)c4ccccc4)ncc23)ccn1 [Example 621]                  IC50   1.29 nM

Attention now shifts to the item below.
Value lookup for IC50; key = C[C@@H](NC(=O)Nc1cc2[nH]nc(CNCC(F)(F)F)c2cn1)c1ccccc1 [Example 561]
15 nM
